Numbers sourced from PubChem BioAssay AID1963843.

- Test system: 616215-338-R-J1-PDC complex spheroid viability
- methodSummary: Anticancer human tumor 616215-338-R-J1-PDC patient-derived colon adenocarcinoma cell line growth inhibition [POLQ]
- conditionsUsed: second compound 0.1 µM; first compound 0.1 µM; stronger effect = lower value
Reported viability, T/C values for the following compounds.
Reply with just the number (in %).

CC1COCCN1c1cc(-c2ccnn2C)c2ccnc(-c3ccn[nH]3)c2n1 (stereo unspecified) + Cc1cccc(N(C)C(=O)C2C(O)CCN2c2nc(C)cc(C(F)(F)F)c2C#N)c1 : 100
COc1cc2cc(C(=O)CCC(=O)O)sc2cc1OC + Cc1cccc(N(C)C(=O)C2C(O)CCN2c2nc(C)cc(C(F)(F)F)c2C#N)c1 : 109
O=c1[nH]cc(F)c(=O)[nH]1 + Cc1cccc(N(C)C(=O)C2C(O)CCN2c2nc(C)cc(C(F)(F)F)c2C#N)c1 : 108

QUERY: GET /values?readout=viability, T/C&item= COc1cccc2c1C(=O)c1c(O)c3c(c(O)c1C2=O)CC(O)(C(=O)CO)CC3OC1CC(N)C(O)C(C)O1 (stereo unspecified) + Nc1ccc(C#CCN(C(=O)Cc2ncc(C(F)(F)F)cc2C(F)(F)F)c2ccc(F)cc2)nn1
RESULT: 46.5

QUERY: Next entry: O=C(Nc1ccc(O)c(NS(=O)(=O)c2ccc(F)cc2)c1)c1ccc(-c2ccccc2)cc1 + Cc1cccc(N(C)C(=O)C2C(O)CCN2c2nc(C)cc(C(F)(F)F)c2C#N)c1
RESULT: 95.7

QUERY: # repeat for CC1COCCN1c1cc(C2(O)CC3CCC(C2)O3)c2cnn(-c3ccn[nH]3)c2n1 (stereo unspecified) + Cc1cccc(N(C)C(=O)C2C(O)CCN2c2nc(C)cc(C(F)(F)F)c2C#N)c1
RESULT: 99.1

----------
- Test system: 616215-338-R-J1-PDC complex spheroid viability
- methodSummary: Anticancer human tumor 616215-338-R-J1-PDC cell line growth inhibition [POLQ];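 further: spheroids exposed to compounds for one week before readout; percent viability relative to DMSO vehicle wells taken as 100%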
- conditionsUsed: second compound 0.0316 µM; first compound 0.1 µM; stronger effect = lower value
Binary label based on viability, T/C with cut-off 90%: below gives class 1, not below gives class 0.

COc1cc(C2c3cc4c(cc3C(OC3OC5COC(C)OC5C(O)C3O)C3COC(=O)C23)OCO4)cc(OC)c1O (stereo unspecified) + COC1C(OC(N)=O)C(O)C(Oc2ccc3c(O)c(NC(=O)c4ccc(O)c(CC=C(C)C)c4)c(=O)oc3c2C)OC1(C)C : class 0
CCc1cc2c(N3CCc4c(cc(Cn5ccnc5)cc4-c4cn(C)nc4C(F)(F)F)C3=O)cc(C)nc2c(OC)n1 + Nc1ccc(C#CCN(C(=O)Cc2ncc(C(F)(F)F)cc2C(F)(F)F)c2ccc(F)cc2)nn1 : class 0
CCCS(=O)(=O)Nc1ccc(F)c(C(=O)c2c[nH]c3ncc(-c4ccc(Cl)cc4)cc23)c1F + COC1C(OC(N)=O)C(O)C(Oc2ccc3c(O)c(NC(=O)c4ccc(O)c(CC=C(C)C)c4)c(=O)oc3c2C)OC1(C)C : class 0

QUERY: Answer whether the compound COc1ccc([C@@H](O)c2cc(-c3ncnc4cc(N5CCOCC5)ccc34)c(F)cc2Cl)nn1 + Cc1cccc(N(C)C(=O)C2C(O)CCN2c2nc(C)cc(C(F)(F)F)c2C#N)c1 has viability, T/C strictly less than 90%
RESULT: class 0

QUERY: Could you do the same for CC1COCCN1c1cc(C2(O)CC3CCC(C2)O3)c2cnn(-c3ccn[nH]3)c2n1 (stereo unspecified) + Cc1cccc(N(C)C(=O)C2C(O)CCN2c2nc(C)cc(C(F)(F)F)c2C#N)c1 , please?
RESULT: class 0

QUERY: How about C=CCn1c(=O)c2cnc(Nc3ccc(N4CCN(C)CC4)cc3)nc2n1-c1cccc(C(C)(C)O)n1 + Cc1cccc(N(C)C(=O)C2C(O)CCN2c2nc(C)cc(C(F)(F)F)c2C#N)c1 ?
RESULT: class 1

QUERY: Try this compound too: O=c1[nH]cc(F)c(=O)[nH]1 + Nc1ccc(C#CCN(C(=O)Cc2ncc(C(F)(F)F)cc2C(F)(F)F)c2ccc(F)cc2)nn1
RESULT: class 1

QUERY: Can you check COc1cc2cc(C(=O)CCC(=O)O)sc2cc1OC + Nc1ccc(C#CCN(C(=O)Cc2ncc(C(F)(F)F)cc2C(F)(F)F)c2ccc(F)cc2)nn1 next?
RESULT: class 0

QUERY: And COc1cccc2c1C(=O)c1c(O)c3c(c(O)c1C2=O)CC(O)(C(=O)CO)CC3OC1CC(N)C(O)C(C)O1 (stereo unspecified) + COC1C(OC(N)=O)C(O)C(Oc2ccc3c(O)c(NC(=O)c4ccc(O)c(CC=C(C)C)c4)c(=O)oc3c2C)OC1(C)C ?
RESULT: class 0

QUERY: Another: O=c1[nH]cc(F)c(=O)[nH]1 + COC1C(OC(N)=O)C(O)C(Oc2ccc3c(O)c(NC(=O)c4ccc(O)c(CC=C(C)C)c4)c(=O)oc3c2C)OC1(C)C
RESULT: class 0

QUERY: Same question for CCCS(=O)(=O)Nc1ccc(F)c(C(=O)c2c[nH]c3ncc(-c4ccc(Cl)cc4)cc23)c1F + Nc1ccc(C#CCN(C(=O)Cc2ncc(C(F)(F)F)cc2C(F)(F)F)c2ccc(F)cc2)nn1 please.
RESULT: class 0

QUERY: What would you report for COc1cccc(OCCCN)c1-c1cc(Nc2cnc(C#N)cn2)n[nH]1 + Cc1cccc(N(C)C(=O)C2C(O)CCN2c2nc(C)cc(C(F)(F)F)c2C#N)c1 ?
RESULT: class 1

QUERY: Now this one: COc1cc2cc(C(=O)CCC(=O)O)sc2cc1OC + Cc1cccc(N(C)C(=O)C2C(O)CCN2c2nc(C)cc(C(F)(F)F)c2C#N)c1
RESULT: class 0

QUERY: One more compound: Nc1ccn(C2OC(CO)C(O)C2(F)F)c(=O)n1 (stereo unspecified) + Nc1ccc(C#CCN(C(=O)Cc2ncc(C(F)(F)F)cc2C(F)(F)F)c2ccc(F)cc2)nn1
RESULT: class 1
